- TEST_DETAILS: Oral bioavailability in rat at 1 mg/kg
- Format: ADME, organism-based
- MEASUREMENT_SETUP: in vivo
OBSERVED_PROPERTY: bioavailability (%)
Provide the reading as a plain figure in %.

Supply bioavailability value. Item: CC(C)(CN1CCN(C2=Cc3ccccc3Cn3cc(F)nc32)CC1)C(=O)O
45

###

- TEST_DETAILS: Oral bioavailability in rat at 3 mg/kg
- Format: ADME, organism-based
- MEASUREMENT_SETUP: in vivo
OBSERVED_PROPERTY: bioavailability
Record the result as number plus unit.

Could you please provide reported bioavailability for CC(C)(CN1CCN(C2=Cc3ccccc3Cn3ccnc32)CC1)C(=O)O ? Thanks!
61%
